Test system: pigweed (Amaranthus retroflexus)
method.notes: Test B pre-/postemergence plant response
Format: in vivo
setup.conditions: Preemergence, 500 g ai/ha; 0 to 100 scale where 0 is no effect and 100 is complete control
Plant response rating, Pigweed less than 80 is Met; Plant response rating, Pigweed greater than or equal to 80 is Not met.

Is the reported Plant response rating, Pigweed for Clc1ccc(-c2c(I)cccc2Oc2ncc(Cl)cn2)nc1 [Compound 205] strictly below 80?
Not met

Check FC(F)(F)c1csc(-c2ccccc2Oc2ncc(Br)cn2)n1 [Compound 139] too.
Met

How about Cn1nnnc1-c1ccccc1Oc1ncc(Cl)cn1 [Compound 47] ?
Met

Request: FC(F)(F)c1cc(-c2c(Br)cccc2Oc2ncc(Cl)cn2)no1 [Compound 170]
Not met
